test.name: yeast display, Sf9 membrane polyspecificity reagent, FACS + sequencing; frameworks hold sequencing errors
measurement.type: polyreactivity (PSR sort gate)

QVQLVESGGGLVQAGGSLRLSCAASGIIFFWNAMGWYRQAPGKERELVAAISEDGGGTYYADSVKGRFTISRDNAKNTVYLQMNSMKPEDTAVYYCNTDTSPQIVTRGSFDDYWGQGTQATVSS : low polyreactivity
QVQLEESGGGLVQAGGSLRLSCAASGSIFSTYAMGWYRQAPGKERELVSAINSGDSTSYADSVKGRFTISRDNAKNTVYLQRNSLKPEDTAVYYCAAKTGGYWYLRRTGRYESWGQGTQVTVSS : low polyreactivity
QVQLVESGGGLVQAGGSLRLSCAASGYISYVNPMGWYRQAPGKERELVAAISGRGGSTYYADSVKGRFTISRDNAKNTVYLQMYSLKPEDTAVYYCAADLYYSYYWGQGTQVTVSS : low polyreactivity
QVQLVESGGGLVQAGGSLRLSCAASGFTFGGNAMGWYRQAPGKEREFVAAITRSGGSTYYADSVKGRFTISRDNAKNTVYLQMNSLKPEDTAVYYCAARRSYPLGYDYWGQGTQVTVSS : high polyreactivity
QVQLVESGGGLVQAGGSLRLSCAASGSTFGSYAMGLYRQAPGKERELVAAITQIGGSTYYADSVKGRFTISRDNAKNTVYLQMNSLKPEDTAVYYCAVTAGRGGYPQGGVTRGYWGQGTQVTVSS : high polyreactivity
QVQLVESGGGLVQAGGSLRLSCAASGSTFPPYAMGWYRPAPGKGRELVAAISYRDTGTYYADSVKGRFTISRDNAKNTVYLQMNSLKPEDTAVYYCAADYLIVYYFLYYYWGQGTPVTVSS : low polyreactivity
QVQLVESGGGLVQAGGSLRLSCASSGFTLVGYAMGWYRQAPGKERELVAAISYRGGSTYYADSVKGRFTISRDNAKNTVYLQMNSLKPEDNAVYYCAATYQGSSRSRGYWGQGTQVTVSS : high polyreactivity
QFHLVESGGGLVQAGGSLRLSCAASGSTFWFNVMGWYRQAPGKEREFVAAISSIGGSTYYADSVKGRFTISRDNAKNTVYLQMNSMKPEDTAVYYCAVEVVRVYRYDYWGQGTQVTVTS : low polyreactivity
QVQLQESGGGLLQAGGSLRLSCAASGTIFRFRYMGWHRQAPGKERELVAGINGGTTTYYADSVIGRFTISRDNAKNTVYLQMNSLKPDDTAVYNCAAGASRLTYYDYWGQGTQVTVSS : low polyreactivity
QDQLLESGGGLVQAGGSLLLSCAASGSTFFDYAMGWYRQAPGKERELVAVISDGGTTTYADSVKGRFTISRDNAKNTVYLQMNSLKPEDTAVYYCAAENQDGLLVILGGYGYWGQGTQVTVSS : low polyreactivity
QVQLVESGGGLVQAGGSLRLSCAASVSTFVLYAMGWYRQAPGKERELVAVISWSGGSTYYADSVKGRFTISRDNAKNTVYLQMNSLKPEDTAVYYCAADSTWEGGYKYEYWGQGTQVTVSS : low polyreactivity
